# Read-out: Interleukin 17A (IL17A), IL17A (gene 3605)
# method.summary: BSK_BT_xIL17A: BioMAP Diversity Plus: BT Assay for Interleukin 17A (IL17A) Biomarker Activity (AID 2284229)
# test.conditions: primary human B cells with PBMC
Activity calls are given as the source filed them. How the source made its calls: active means hit-call score of the fitted dose curve at least 0.9, where 1 is the maximum; inactive means score below 0.9.
Outcome codes: y (active), n (inactive)

molecule	cat
CO[Si](C)(CCC(F)(F)C(F)(F)C(F)(F)C(F)(F)C(F)(F)C(F)(F)F)OC	n
CC(C)CCCC(C)CCO (stereo unspecified)	n
O=C(F)C1(F)C(F)(F)C(F)(F)C(F)(F)C(F)(F)C1(F)F	n
O=C(Cl)C(F)(F)C(F)(F)C(F)(F)C(F)(F)C(F)(F)C(F)(F)F	n
NC(O)(C(F)(F)F)C(F)(F)F	n
NS(=O)(=O)C(F)(F)C(F)(F)C(F)(F)C(F)(F)C(F)(F)C(F)(F)F	n
O=C(O)C(F)(F)C(F)(F)C(F)(F)OC(F)(F)F	n
C[C@]12CC[C@H]3C(=CCc4cc(O)ccc43)[C@@H]1CCC2=O	n
O=S(=O)(OCC(F)(F)F)C(F)(F)C(F)(F)C(F)(F)C(F)(F)F	n
O=C(c1ccccc1)c1ccc(O)cc1O	n
CCOC(C=C(C)CCC=C(C)C)OCC	n
OC(O)C(F)(F)C(F)(F)F	n
O=S(=O)(O)CCC(F)(F)C(F)(F)C(F)(F)C(F)(F)F	n
CCN(CC)c1ccc(C=O)cc1	n
CC1=CC2C3C=CC(C3)C2C1C (stereo unspecified)	n
CCOC(=O)CC(=O)C(F)(F)C(F)(F)F	n
CN(C(=O)C(F)(F)C(F)(F)C(F)(F)F)[Si](C)(C)C	n
C[Si](Cl)(Cl)CCC(F)(F)C(F)(F)C(F)(F)C(F)(F)C(F)(F)C(F)(F)F	n
O=C(O)CCC(F)(F)C(F)(F)C(F)(F)F	n
O=C(O)CCC(F)(F)C(F)(F)C(F)(F)C(F)(F)C(F)(F)C(F)(F)C(F)(F)F	n
OCCCCC(F)(F)C(F)(F)C(F)(F)C(F)(F)F	n
Cc1cc(O)c(C(C)(C)C)cc1C(C)(C)C	y
O=C=NCc1cccc(CN=C=O)c1	n
NC(=O)C(F)(F)C(F)(F)C(F)(F)C(F)F	n
Cc1cnccn1	n
O=S(=O)(Cl)C(F)(F)C(F)(F)C(F)(F)C(F)(F)C(F)(F)C(F)(F)C(F)(F)C(F)(F)F	n
Cc1ccc(S(=O)(=O)C(I)I)cc1	y
CCN(CC)c1ccc2c(c1)Oc1cc(N(CC)CC)ccc1C21OC(=O)c2ccccc21	n
O=C1C=CC(=O)N1c1ccc(Cc2ccc(N3C(=O)C=CC3=O)cc2)cc1	y
CC(C)(C)c1cc(CCC(=O)NCCCCCCNC(=O)CCc2cc(C(C)(C)C)c(O)c(C(C)(C)C)c2)cc(C(C)(C)C)c1O	n
NC(=O)C(F)(F)C(F)(F)C(F)(F)C(F)(F)C(N)=O	n
O=C1c2c(O)ccc(Nc3ccc(CCO)cc3)c2C(=O)c2c([N+](=O)[O-])ccc(O)c21	n
CNS(=O)(=O)C(F)(F)C(F)(F)C(F)(F)C(F)(F)C(F)(F)C(F)(F)C(F)(F)C(F)(F)F	n
Cc1ccc(O)c(-n2nc3ccccc3n2)c1	n
OCC(O)CC(F)(F)C(F)(F)C(F)(F)C(F)(F)C(F)(F)C(F)(F)C(F)(F)C(F)(F)F (stereo unspecified)	n
CCN(CC)c1ccc(N=Nc2ccccc2)cc1	y
